# System: Octopamine receptor (Periplaneta americana)
# Experiment summary: Agonist activity at Periplaneta americana (American cockroach) thoracic nerve cord octopaminergic receptor assessed as induction of adenylate cyclase-mediated cAMP production per mg protein at 100 uM by radioimmunoassay relative to octopamine
Endpoint label: max activation (%)
Write the number in % without appending the unit.

Use these answered entries as a reference point.
| Compound string | System | max activation, % |
| --- | --- | --- |
| FC(F)(F)c1cccc(CNC2=NCCO2)c1 | Octopamine receptor (Periplaneta americana) | 17.2 |
| FC(F)(F)c1ccc(CNC2=NCCO2)cc1 | Octopamine receptor (Periplaneta americana) | 7 |
| O=[N+]([O-])c1cccc(CNC2=NCCO2)c1 | Octopamine receptor (Periplaneta americana) | 18.4 |
| CCc1ccc(/N=C2/NCCO2)cc1 | Octopamine receptor (Periplaneta americana) | 11.5 |
| Clc1ccc(CNC2=NCCO2)c(Cl)c1 | Octopamine receptor (Periplaneta americana) | 11.8 |

Query: Octopamine receptor (Periplaneta americana) / max activation / `Cc1cc(Br)ccc1/N=C1/NCCO1` : value?
Result: 19.9

Query: Try the compound `COc1ccc(CNC2=NCCO2)cc1`
Result: 17

Query: Try the compound `Cc1cccc(CNC2=NCCO2)c1`
Result: 9.2

Query: Try the compound `FC(F)(F)c1ccc(/N=C2/NCCO2)cc1`
Result: 6.6

Query: Try the compound `Brc1ccccc1CNC1=NCCO1`
Result: 10.4

Query: Try the compound `COc1cccc(CNC2=NCCO2)c1`
Result: -3.6

Query: Try the compound `COc1ccccc1CNC1=NCCO1`
Result: 6.9

Query: Try the compound `Clc1ccc(CNC2=NCCO2)cc1Cl`
Result: 13.5

Query: Try the compound `Clc1ccc(/N=C2/NCCO2)c(Cl)c1Cl`
Result: 15.1
